# system name: BRM (Homo sapiens)
# Construct: In-Cell Western Screen of BRM Degradation in SW1573 Cells; endogenous in cells; host or cells: SW1573
# assay notes: In-cell Western screen of BRM degradation in SW1573 cells (Dmax and DC50)
# Type: cell-based
# measurement setup: BRM degradation, SW1573 cells; read-out: DC50
measured endpoint: DC50

molecule=Cc1ncsc1-c1ccc(CNC(=O)[C@@H]2C[C@@H](O)CN2C(=O)[C@H](C(C)C)N2Cc3ccccc3C2=O)c(OCCOCCOCCOCCn2cc(-c3cc(-c4ccccc4O)nnc3N)cn2)c1 measured_endpoint=DC50 reported_result="> 30 nM"
molecule=Cc1ncsc1-c1ccc([C@H](NC(=O)[C@@H]2C[C@@H](O)CN2C(=O)[C@@H](c2cc(OCCN3CCC(O[C@H]4C[C@H](Oc5cc(N6C7CCC6CN(c6cc(-c8ccccc8O)nnc6N)C7)ccn5)C4)CC3)no2)C(C)C)C(F)F)cn1 measured_endpoint=DC50 reported_result="< 2.5 nM"
molecule=Cc1ncsc1-c1ccc([C@H](C)NC(=O)[C@@H]2C[C@@H](O)CN2C(=O)[C@H](c2cc(CCCN3CCC(O[C@H]4C[C@H](Oc5cc(N6C7CCC6CN(c6cc(-c8ccccc8O)nnc6N)C7)ccn5)C4)CC3)no2)C(C)C)cc1 measured_endpoint=DC50 reported_result="> 30 nM"
molecule="Cc1ncsc1-c1ccc(CNC(=O)[C@@H]2C[C@@H](O)CN2C(=O)C(c2cc(CCCOCCOCCn3cc(-c4cc(-c5ccccc5O)nnc4N)cn3)no2)C(C)C)cc1 (stereo partly shown)" measured_endpoint=DC50 reported_result="> 30 nM"

###

# system name: BRM (Homo sapiens, UniProt P51531)
# Construct: In-Cell Western Screen of BRM Degradation in SW1573 Cells; endogenous in cells; host or cells: SW1573
# Sequence (P51531 whole entry): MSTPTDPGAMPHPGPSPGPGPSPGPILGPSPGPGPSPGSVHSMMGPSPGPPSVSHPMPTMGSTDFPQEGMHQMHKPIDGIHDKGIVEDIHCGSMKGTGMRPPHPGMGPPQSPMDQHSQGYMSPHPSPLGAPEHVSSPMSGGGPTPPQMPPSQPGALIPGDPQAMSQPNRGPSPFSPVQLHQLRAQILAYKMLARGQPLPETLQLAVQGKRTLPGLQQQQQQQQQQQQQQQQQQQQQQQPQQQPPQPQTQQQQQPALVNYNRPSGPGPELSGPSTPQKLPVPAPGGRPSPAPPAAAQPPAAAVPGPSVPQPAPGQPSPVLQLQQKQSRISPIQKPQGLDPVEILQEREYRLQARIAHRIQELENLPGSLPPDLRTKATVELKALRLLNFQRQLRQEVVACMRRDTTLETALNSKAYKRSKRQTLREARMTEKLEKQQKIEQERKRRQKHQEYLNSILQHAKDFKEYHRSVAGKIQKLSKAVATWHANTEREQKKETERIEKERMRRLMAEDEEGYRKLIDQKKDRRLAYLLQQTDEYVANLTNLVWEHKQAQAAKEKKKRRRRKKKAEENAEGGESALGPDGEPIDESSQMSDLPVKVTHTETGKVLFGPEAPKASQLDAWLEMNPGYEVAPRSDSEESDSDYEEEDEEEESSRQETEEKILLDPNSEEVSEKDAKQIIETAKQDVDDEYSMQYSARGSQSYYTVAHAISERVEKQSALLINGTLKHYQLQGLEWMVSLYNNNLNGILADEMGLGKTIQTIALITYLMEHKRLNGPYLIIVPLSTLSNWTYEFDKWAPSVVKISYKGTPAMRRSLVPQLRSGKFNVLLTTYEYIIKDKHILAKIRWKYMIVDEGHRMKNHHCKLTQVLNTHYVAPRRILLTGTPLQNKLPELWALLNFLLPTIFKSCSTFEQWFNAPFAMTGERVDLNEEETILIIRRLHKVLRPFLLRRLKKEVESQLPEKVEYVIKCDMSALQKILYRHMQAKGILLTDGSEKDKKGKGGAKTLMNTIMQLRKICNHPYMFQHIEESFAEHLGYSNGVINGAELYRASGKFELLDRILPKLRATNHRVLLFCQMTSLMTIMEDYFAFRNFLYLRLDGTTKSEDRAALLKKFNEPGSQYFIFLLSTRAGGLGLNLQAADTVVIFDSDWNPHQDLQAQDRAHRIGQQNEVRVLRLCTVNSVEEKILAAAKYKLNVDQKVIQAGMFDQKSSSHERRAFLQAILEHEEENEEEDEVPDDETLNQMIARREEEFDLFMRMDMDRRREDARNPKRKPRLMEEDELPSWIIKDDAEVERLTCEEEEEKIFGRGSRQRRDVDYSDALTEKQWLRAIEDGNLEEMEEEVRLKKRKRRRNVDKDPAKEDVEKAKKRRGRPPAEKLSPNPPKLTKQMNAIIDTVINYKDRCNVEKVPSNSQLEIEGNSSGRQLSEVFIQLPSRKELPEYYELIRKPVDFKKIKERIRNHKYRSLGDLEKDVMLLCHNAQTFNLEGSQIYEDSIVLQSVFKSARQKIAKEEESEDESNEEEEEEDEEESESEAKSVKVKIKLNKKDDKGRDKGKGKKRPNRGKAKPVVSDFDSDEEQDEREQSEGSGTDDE
# assay notes: In-cell Western screen of BRM degradation in SW1573 cells (Dmax and DC50)
# Assay type: cell-based
# measurement setup: BRM degradation, SW1573 cells; read-out: DC50
Reported DC50 by item:
measured endpoint: DC50

compound="Cc1ncsc1-c1ccc([C@H](C)NC(=O)[C@@H]2C[C@@H](O)CN2C(=O)[C@H](c2cc(N3CCN(CCN4CCC(O[C@H]5C[C@H](Oc6cc(N7C8CCC7CN(c7cc(-c9ccccc9O)nnc7N)C8)ccn6)C5)CC4)CC3)no2)C(C)C)cc1 [compound 195]" system_name="BRM (Homo sapiens, UniProt P51531)" measured_endpoint=DC50 reported_result="> 30 nM"
compound="Cc1ncsc1-c1ccc([C@H](C)NC(=O)[C@@H]2C[C@@H](O)CN2C(=O)[C@@H](c2cc(N3CCC(CN4CCC(O[C@H]5C[C@H](Oc6cc(N7C8CCC7CN(c7cc(-c9ccccc9O)nnc7N)C8)ccn6)C5)CC4)CC3)no2)C(C)C)c(F)c1F [compound 679]" system_name="BRM (Homo sapiens, UniProt P51531)" measured_endpoint=DC50 reported_result="< 2.5 nM"

###

Reported Dmax by item:
# system name: BRM (Homo sapiens)
# Construct: In-Cell Western Screen of BRM Degradation in SW1573 Cells; endogenous in cells; host or cells: SW1573
# assay notes: In-cell Western screen of BRM degradation in SW1573 cells (Dmax and DC50)
# Type: cell-based
# measurement setup: BRM degradation, SW1573 cells; read-out: Dmax (% degraded)
measured endpoint: Dmax

compound=Cc1ncsc1-c1ccc([C@H](C)NC(=O)[C@@H]2C[C@@H](O)CN2C(=O)[C@@H](c2cc(OCCN3CC[C@@H](O[C@H]4C[C@H](Oc5cc(N6C7CCC6CN(c6cc(-c8ccccc8O)nnc6N)C7)ccn5)C4)C[C@@H]3C)no2)C(C)C)cc1 measured_endpoint=Dmax reported_result="> 75%"
compound=CC(C)[C@H](C(=O)N1C[C@H](O)C[C@H]1C(=O)N[C@@H](C)c1ccc(-c2scnc2N)cc1)c1cc(N2CCC(CN3CCC(O[C@H]4C[C@H](Oc5cc(N6C7CCC6CN(c6cc(-c8ccccc8O)nnc6N)C7)ccn5)C4)CC3)CC2)no1 measured_endpoint=Dmax reported_result="> 75%"
compound=CC[C@@H](NC(=O)[C@@H]1C[C@@H](O)CN1C(=O)[C@@H](c1cc(N2CCC(CN3CCC(O[C@H]4C[C@H](Oc5cc(N6C7CCC6CN(c6cc(-c8ccccc8O)nnc6N)C7)ccn5)C4)CC3)CC2)no1)C(C)C)c1ccc(-c2scnc2C)cc1 measured_endpoint=Dmax reported_result="50 to 75%"
compound=Cc1ncsc1-c1ccc([C@H](C)NC(=O)[C@@H]2C[C@@H](O)CN2C(=O)[C@@H](c2cc(N3CCC(C#CCN4CCC(Oc5cc(N6C7CCC6CN(c6cc(-c8ccccc8O)nnc6N)C7)ccn5)CC4)CC3)no2)C(C)C)cc1 measured_endpoint=Dmax reported_result="> 75%"
compound="Cc1ncsc1-c1ccc([C@H](C)NC(=O)[C@@H]2C[C@@H](O)CN2C(=O)[C@@H](c2cc(N3CCC(CN4CCC(O[C@H]5C[C@@H](N6CCC(C(C)n7cc(-c8cc(-c9ccccc9O)nnc8N)cn7)CC6)C5)CC4)CC3)no2)C(C)C)cc1 (some centres unmarked)" measured_endpoint=Dmax reported_result="> 75%"
compound=Cc1ncsc1-c1ccc([C@H](C)NC(=O)[C@@H]2C[C@@H](O)CN2C(=O)[C@@H](c2cc(N3CCC(CN4CCC(O[C@H]5C[C@H](C#Cc6cc(N7C8CCC7CN(c7cc(-c9ccccc9O)nnc7N)C8)ccn6)C5)CC4)CC3)no2)C(C)C)cc1 measured_endpoint=Dmax reported_result="> 75%"
compound=Cc1ncsc1-c1ccc([C@@H](CCC#N)NC(=O)[C@@H]2C[C@@H](O)CN2C(=O)[C@@H](c2cc(N3CCC(CN4CCC(O[C@H]5C[C@H](Oc6cc(N7C8CCC7CN(c7cc(-c9ccccc9O)nnc7N)C8)ccn6)C5)CC4)CC3)no2)C(C)C)cc1 measured_endpoint=Dmax reported_result="50 to 75%"
compound=Cc1ncsc1-c1ccc([C@H](C)NC(=O)[C@@H]2C[C@@H](O)CN2C(=O)[C@@H](c2cc(N3CCC4(CCN(C[C@H]5C[C@H](Oc6cc(N7C8CCC7CN(c7cc(-c9ccccc9O)nnc7N)C8)ccn6)C5)CC4)CC3)no2)C(C)C)cc1 measured_endpoint=Dmax reported_result="> 75%"
